TARGET_ENTITY: UniProtKB P42892
Sequence (P42892 1-754 isoform P42892-3): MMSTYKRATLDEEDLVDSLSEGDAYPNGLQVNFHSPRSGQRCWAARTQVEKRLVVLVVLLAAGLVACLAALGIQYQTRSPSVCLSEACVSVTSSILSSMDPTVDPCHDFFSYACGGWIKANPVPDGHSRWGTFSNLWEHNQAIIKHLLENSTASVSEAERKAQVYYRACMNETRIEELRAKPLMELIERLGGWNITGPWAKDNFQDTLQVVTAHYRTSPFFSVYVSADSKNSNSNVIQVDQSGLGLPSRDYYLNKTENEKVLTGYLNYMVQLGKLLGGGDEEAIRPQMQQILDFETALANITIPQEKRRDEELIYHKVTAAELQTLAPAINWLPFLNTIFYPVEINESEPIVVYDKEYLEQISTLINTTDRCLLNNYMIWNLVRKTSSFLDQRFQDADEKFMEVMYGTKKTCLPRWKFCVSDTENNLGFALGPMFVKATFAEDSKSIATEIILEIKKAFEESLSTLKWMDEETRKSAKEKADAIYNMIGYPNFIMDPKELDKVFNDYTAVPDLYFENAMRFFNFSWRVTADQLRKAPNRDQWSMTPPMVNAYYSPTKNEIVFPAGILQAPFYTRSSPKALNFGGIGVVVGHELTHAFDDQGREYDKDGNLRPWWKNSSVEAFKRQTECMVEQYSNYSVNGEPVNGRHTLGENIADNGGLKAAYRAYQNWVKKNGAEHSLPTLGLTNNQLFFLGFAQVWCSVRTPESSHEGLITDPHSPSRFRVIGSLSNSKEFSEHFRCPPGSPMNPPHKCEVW

COMPOUND	Ki
O=C(N[C@@H](Cc1c[nH]c2ncccc12)C(=O)O)C(CS)C1CCc2cc(Br)ccc21 (stereo partly drawn) [33 (2S-3R-4S)]	23.3 nM

* * *

TARGET_ENTITY: Neutral endopeptidase (Oryctolagus cuniculus, UniProt P08049)
Sequence (P08049 1-750): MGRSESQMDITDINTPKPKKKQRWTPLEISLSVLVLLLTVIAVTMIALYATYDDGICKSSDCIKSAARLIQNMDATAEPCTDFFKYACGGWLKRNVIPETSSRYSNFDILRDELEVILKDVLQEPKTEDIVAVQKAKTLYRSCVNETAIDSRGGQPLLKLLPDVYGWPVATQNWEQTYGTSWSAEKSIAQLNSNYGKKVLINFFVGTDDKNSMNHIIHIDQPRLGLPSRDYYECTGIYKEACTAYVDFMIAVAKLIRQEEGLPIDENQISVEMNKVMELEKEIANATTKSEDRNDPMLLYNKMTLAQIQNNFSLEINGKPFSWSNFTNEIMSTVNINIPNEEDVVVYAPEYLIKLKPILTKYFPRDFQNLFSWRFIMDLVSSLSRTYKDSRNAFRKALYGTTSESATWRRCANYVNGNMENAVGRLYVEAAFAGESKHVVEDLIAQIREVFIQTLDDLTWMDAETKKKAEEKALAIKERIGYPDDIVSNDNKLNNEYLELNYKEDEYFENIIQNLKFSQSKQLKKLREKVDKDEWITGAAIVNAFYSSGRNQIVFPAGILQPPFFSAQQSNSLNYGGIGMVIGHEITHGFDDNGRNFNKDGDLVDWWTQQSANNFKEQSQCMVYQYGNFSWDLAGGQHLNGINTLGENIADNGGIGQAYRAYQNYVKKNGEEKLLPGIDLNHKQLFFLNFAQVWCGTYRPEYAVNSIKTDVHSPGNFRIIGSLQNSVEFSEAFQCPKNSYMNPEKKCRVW

COMPOUND	Ki (nM)
O=C(N[C@@H](Cc1c[nH]c2ncccc12)C(=O)O)C(CS)C1CCc2cc(Br)ccc21 (stereo partly drawn) [33 (2S-3R-4S)]	2.91
